System: MCF-7 cells
ASSAY_DETAILS: Inhibition of cell proliferation in MCF-7 cells (CCK-8)
Type: cell-based
MEASUREMENT_SETUP: MCF-7 cell proliferation, 6 days treatment
Reported pIC50 by item:
Answer as the number alone; pIC50 is minus log10 of concentration in mol/L.

INSERT INTO assay_data (molecule, test_value) VALUES
  ('O=C1CC[C@H](NC(=O)c2c(F)ccc3c2OCC32CCN(CC3CCC(OC4CCN(c5ccc([C@@H]6c7ccc(O)cc7CC[C@@H]6c6ccccc6)cc5)CC4)CC3)CC2)C(=O)N1 (some centres unmarked)', 5.18);

The reported value for Cn1c(=O)n(C2CCC(=O)NC2=O)c2cc3c(cc21)OC1(CC3)CCN(CC2CC(OC3CCN(c4ccc([C@@H]5c6ccc(O)cc6CC[C@@H]5c5ccccc5)cc4)CC3)C2)CC1 (some centres unmarked) in terms of pIC50 is 8.80

The reported value for COc1cc2c(cc1C(=O)N[C@H]1CCC(=O)NC1=O)OCC21CCN(CC2CCC(OC3CCN(c4ccc([C@@H]5c6ccc(O)cc6CC[C@@H]5c5ccccc5)cc4)CC3)CC2)CC1 (some centres unmarked) in terms of pIC50 is 5.08

The reported value for COc1cc2c(cc1C(=O)N[C@H]1CCC(=O)NC1=O)OCC[C@H]1CN(CC3CCC(OC4CCN(c5ccc([C@@H]6c7ccc(O)cc7CC[C@@H]6c6ccccc6)cc5)CC4)CC3)CCN21 (some centres unmarked) in terms of pIC50 is 6.14

The reported value for O=C1CCC(Nc2ccc3c(c2)COC[C@H]2CN(CC4CCC(OC5CCN(c6ccc([C@@H]7c8ccc(O)cc8CC[C@@H]7c7ccccc7)cc6)CC5)CC4)CCN32)C(=O)N1 (single isomer, unassigned) [ER-P-50] in terms of pIC50 is 5.49

====

EXPERIMENTAL_SYSTEM: AR protein (Homo sapiens, UniProt P10275, T878A)
Construct: host or cells: LNCaP FGC
Sequence (P10275 1-920 T878A): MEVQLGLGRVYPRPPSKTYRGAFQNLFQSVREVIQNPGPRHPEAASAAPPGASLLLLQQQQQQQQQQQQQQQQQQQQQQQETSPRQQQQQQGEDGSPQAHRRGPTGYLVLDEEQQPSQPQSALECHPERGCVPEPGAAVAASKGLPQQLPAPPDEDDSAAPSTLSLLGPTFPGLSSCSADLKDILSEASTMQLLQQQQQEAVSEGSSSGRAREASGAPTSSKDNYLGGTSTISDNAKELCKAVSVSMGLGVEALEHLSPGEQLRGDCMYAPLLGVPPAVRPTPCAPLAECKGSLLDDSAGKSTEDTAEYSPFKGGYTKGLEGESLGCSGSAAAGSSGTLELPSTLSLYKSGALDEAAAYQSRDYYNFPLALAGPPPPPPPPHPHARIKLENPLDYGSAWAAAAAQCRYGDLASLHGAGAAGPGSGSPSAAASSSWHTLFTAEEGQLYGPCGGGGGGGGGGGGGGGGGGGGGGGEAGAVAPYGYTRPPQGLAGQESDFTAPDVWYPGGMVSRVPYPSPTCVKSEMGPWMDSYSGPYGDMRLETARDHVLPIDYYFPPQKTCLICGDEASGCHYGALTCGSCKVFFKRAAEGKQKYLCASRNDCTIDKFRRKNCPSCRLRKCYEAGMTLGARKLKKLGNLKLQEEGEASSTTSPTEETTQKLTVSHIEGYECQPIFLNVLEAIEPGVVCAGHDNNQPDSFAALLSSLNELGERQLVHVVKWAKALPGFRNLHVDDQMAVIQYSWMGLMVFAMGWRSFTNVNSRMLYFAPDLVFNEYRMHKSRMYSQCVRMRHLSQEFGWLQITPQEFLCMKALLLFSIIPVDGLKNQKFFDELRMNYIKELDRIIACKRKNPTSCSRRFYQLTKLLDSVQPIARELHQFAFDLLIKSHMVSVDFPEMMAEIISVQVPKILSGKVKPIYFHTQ
ASSAY_DETAILS: AR protein degradation in LNCaP cells (Western blot)
Type: cell-based
MEASUREMENT_SETUP: 100 nM, 8 hours
Reported Degradation of AR protein in LNCaP cells, 100 nM (%) by item:
Report the figure in % without appending any unit label.

INSERT INTO assay_data (molecule, test_value) VALUES
  ('COc1cc(O[C@H]2C(C)(C)[C@H](NC(=O)c3ccc(N4CCC(CN5CCC6(CCc7cc(C(=O)N[C@H]8CCC(=O)NC8=O)c(F)cc7O6)CC5)CC4)nc3)C2(C)C)ccc1C#N', 85),
  ('COc1cc(O[C@H]2C(C)(C)[C@H](NC(=O)c3ccc(N4CCC(CN5CCC6(CC5)COc5c6ccc(C(=O)N[C@H]6CCC(=O)NC6=O)c5OC)CC4)cc3)C2(C)C)ccc1C#N', 14);

The reported value for COc1cc(O[C@H]2C(C)(C)[C@H](NC(=O)c3ccc(N4CCC(C)(CN5CC6(CCC7(CC6)COc6c7ccc7c6CN(C6CCC(=O)NC6=O)C7=O)C5)CC4)cc3)C2(C)C)ccc1C#N (relative stereo) in terms of Degradation of AR protein in LNCaP cells, 100 nM (%) is 83
